Source listed as ChEMBL document CHEMBL4265900.

tgt: Peroxisome proliferator-activated receptor gamma (Homo sapiens)
assay_name: Agonist activity at PPARgamma (unknown origin) at 1 uM relative to telmisartan
measurement_type: Activity (%)

{"columns": ["molecule", "measurement_type", "quantitative_readout"],
 "data": [
  ["CCCCc1nc(C)c(CC(=S)N2Cc3ccccc3C2)c(=O)n1Cc1ccc(-c2ccccc2-c2noc(=O)[nH]2)cc1", "Activity", 100],
  ["CCCCc1nc(C2CC2)c(CC(=S)N2CCCC2)c(=O)n1Cc1ccc(-c2ccccc2-c2noc(=O)[nH]2)cc1", "Activity", 79]
]}

[1] CCCCc1nc(C)c(CC(=S)N2CCCC2C)c(=O)n1Cc1ccc(-c2ccccc2-c2noc(=O)[nH]2)cc1 (centres undefined)
[2] CCCCc1nc(C)c(CC(=S)N(CC)CC)c(=O)n1Cc1ccc(-c2ccccc2-c2noc(=O)[nH]2)cc1
Ask: Short answer wanted: higher Activity, 1 or 2 ? Answer by stating the label of the chosen item.
Reply: 1
